B1: TPR 5TU (parent)
chain: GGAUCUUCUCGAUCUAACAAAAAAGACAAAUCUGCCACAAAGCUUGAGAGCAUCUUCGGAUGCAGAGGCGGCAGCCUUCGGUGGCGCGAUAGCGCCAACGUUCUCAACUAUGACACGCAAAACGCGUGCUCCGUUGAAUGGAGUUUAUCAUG

Variants of: B1
ASSAY_EXPLANATION: polymerase ribozyme fitness, log enrichment relative to wild type (log ratio); higher = more active; in vitro selection for triplet polymerase activity
This sample holds only a part of the variants without activity.
So I've got a bunch of variants here, and I need their polymerase ribozyme fitness (log ratio) values.

Answered cases to consult:
• A37C C108G = ≤ -4.2
• C75G G92U = -2.52
• A30U G42U A119G A138G = ≤ -4.2

I'm hoping you can list polymerase ribozyme fitness (log ratio) for every variant here, please.
1. C54U C93A A110G A137G G140C
2. C69A U82G
3. A73U A122G
4. G94C G100C C131U G133C C149G
5. C85A G117C C118A A147U
6. A24U G48U G83A
7. A52G C54A C69A C87G U90C G100U C103A C105G

Reply:
1. -4.1
2. -1.91
3. -0.995
4. ≤ -4.2
5. -0.0649
6. -1.25
7. ≤ -4.2

I'm hoping you can list polymerase ribozyme fitness (log ratio) for every variant here, please.
1. A52U A89U C96A
2. A19U A60G C72U G143U

Reply:
[-2.98, "≤ -4.2"]
